glycan array binding signal (z-score) values, listed per item
# assayed system: Neu5Gc(a2-3)Gal(b1-3)[Fuc(a1-4)]GlcNAc
# assay details: glycan array binding signal (z-score within array); higher = stronger binding
# settings: glycan notation: IUPAC condensed, linker removed
Many of the other results were omitted from the sample, so the strongest signals are more common in it than they were.
// print number alone

binder	measured metric	reported result
Codakine (Codakia orbicularis), Q3KVL7_9BIVA (protein) MKILVAVFLVLVVVGTAAAGCPDGWTQFLDLCYIYQSAKASWASAQSSCQALGGILAEPDTACENEVLIHMCRENGDAGSFGPWLGGQKVGGAWQWSSSGAAFDYLRWGPNEPNNSGGNEDCLHYNWLSWNDLRCHYQASYLCQRAAE	glycan array binding signal (z-score)	-0.265

Now consider the entry below.
IN: Looking for the measured glycan array binding signal (z-score) of SP15308A-bot-339-19-339 (Bacteroides ovatus) (protein) ACNNEWEDEQYEQYISFKSPIPAGGEGVTDIYVRYKEDGKVTYRLPIVVSGSTTNTLDREVHIAVDKDTLETLNIERFSIHRPGLWYTALEEDKYDFPKTVHISAGSSVEQLNIDFNLQGIDMLEKWVLPLTIVDDPSYNYKSHPRKNYAKALLRVIPFNNYSGSYTSSAMKVYTYINGKPDTNARTANKRTGYVINDNTVFFYAGLISEDLDKEVREKYKINVHFNEDGTLHMEQGDPTNKMKFELIGTPTYSKTSVMDATRPYLERRYVQIMFEYDFEDFSYGGNGVDVIPIKYKVEGSMTLQRNINTQIPDEDQQIEW , can you help?
OUT: -0.412

Where do the numbers come from? From the supplement of paper PMC8728848.
